All figures here come from the DeepSol protein solubility set.

assay: soluble on expression in E. coli; label from the status in PepcDB or PDB records
endpointLabel: soluble on expression in E. coli

* MEEEAAVEKPISLNQQRMNGVVAALKQSNARRVIDLGCGQGNLLKILLKDSFFEQITGVDVSYRSLEIAQERLDRLRLPRNQWERLQLIQGALTYQDKRFHGYDAATVIEVIEHLDLSRLGAFERVLFEFAQPKIVIVTTPNIEYNVKFANLPAGKLRHKDHRFEWTRSQFQNWANKITERFAYNVQFQPIGEADPEVGSPTQMAVFIHRGHHHHHH | soluble
* MRKVLVFLKNSKKAFETFKRVERVLKDLNLSYKKFINRKELFKVLKPKDYELFLVIGGDGTFLSAARIASRFGVPLVGVNEGRFGFLTEIKKEEIKKVLPLVLEGRAKLQERLMIDVYLRSRNRLRYLGNYLNDAVISKSSIARIIRTKVFINGEEVLEVFGDGVILSTPTGSTAYALSAGGPIVYPESQNLLFVPICPHTLSNRPLVLPSKFEVKFKVVSENMEAFLTLDGQEGFHLKKGDEVIVKRSRYVCRMYSHPRKSFFGILKEKLRWG | soluble

* * *

experiment: soluble on expression in E. coli; label from the status in PepcDB or PDB records
endpointLabel: soluble on expression in E. coli

- MLNRIIEHMNAHHVEDMKGLLKKFGQVHHAENVAFKSVDPQGIVIGYNHNQTLRIEFNHEVKDPKDYKNAIIELCQSVEKTHDLKGVEEEVKAFKESFDSVCLATLHPNGHVVCSYAPLMSDGKQYYIYVSEVAEHFAGLKNNPHNVEVMFLEDESKAKSAILRKRLRYKTNARFIERGAEFDKAFDSFIEKTGGAGGIKTIRAMQDFHLIALDFKEGRFVKGFGQAYDILGDKIAYVGDKGNPHNFAHKK: not soluble
- MRVATFSLVAQDPKTGDLGVAVASKFLAVGAVVPFAEAGVGAIATQSYANPRYGPQGLALLRQGASPEGVLEAFRRTDPGLEKRQFGLVAATGESLTFTGAECHPWAGGVAGKGFAAQGNLLSGSEVVEAMVETFLTAQAPFPERLLLALKAGEEAGGDRRGKQSAALLVVGEGKGYGGLWDRYVDLRVDDHPEPIDELFRLLSLHRLLFERPKGRRPLTEEEVRFFQGVLGRLGLYAGEAHGVFDEATERAFLALIGMENLEERYRGGPEVDEATLSYLKGRYGWS: soluble
- AIASAEAADREAVSGSRPCTPPQTSWFEFLLNPSLLEQHLHSPHPDPSPVQLIFQFLEQASKPSVNEQNQVQPPVDNRRNRTLKLMALKVAAHLRWDLNMLEKGLTIPVLNMLLNELLCVSHVPPGVKHVDLDLSSLPPTTAMAVVFYNRWAIRTIVLSSFPEKQTKPGPHQLNMMNMLQQEKEHTENILSVLREQATDSIMVLEGALSIKKDFYIHL: soluble
- SNAMPMTLDLQPGQRLARGVARHLRAHGFVSVEEFVPARGLRVDVMGLGPKGEIWVIECKSSRADFQADAKWQGYLEWCDRYFWAVDMEFPAELLPAESGLLIADAYDAEIVRMAPEQKLAPARRKVLIQKFATHAARRLQALRDPEGHGIFE: soluble

soluble on expression in E. coli measured on MEKKVLLTGFDPFGGETVNPSWEAVKRLNGAAEGPASIVSEQVPTVFYKSLAVLREAIKKHQPDIIICVGQAGGRMQITPERVAINLNEARIPDNEGNQPVGEDISQGGPAAYWTGLPIKRIVEEIKKEGIPAAVSYTAGTFVCNHLFYGLMDEISRHHPHIRGGFIHIPYIPEQTLQKSAPSLSLDHITKALKIAAVTAAVHEDDIETGGGELH = soluble

soluble on expression in E. coli measured on MGSDKIHHHHHHMQYNFKVEAFEGPLDLLLHLIHRYEIDIYNIPVAEITEQYLSYVHTMKELQLDVASEYLVMAATLLQIKSKMLLPKHEEDVLDNGDDFIDDPRQELMERLIEYKKYKQVATELKEREQERAQLYTRPPIDFTSLQQEEETSLPLDVTLYDMLAAFQKLMRRKKAKKPVTTRITRQEIPIEQRMTDILKQLEIQGGRQSFYDLFVDDEREIMVVTFLAVLELMKNQQIVIEQEHNFDEIFVSSYTKSA = not soluble

soluble on expression in E. coli measured on MGHHHHHHSHMKPLIWTWSDVEGQRPALLICTAAAGPTQGVKGYGKPFEPRSVKNIHSTPAYPDATMHRQLLAPVEGRMAETLNQKLHVANVLEDDPGYLPHVYSEEGECGGAPSLSSLASLEQELQPDLLDSLGSKATPFEEIYSESGVPS = not soluble

soluble on expression in E. coli measured on MEQDDPSGEWPLIAALPVRQDVPVDALLADVAAQLAAEGLRTAGFLQRDGVRLEDLTSGALYPITQDLGPGSSGCRLDPAGLALAAAAGLAALERGADLLVIPRFGKAEIEGEGMRGVIGRACELGVPTLVGVRQSAEPAWETFAGGLAEWIAPERQAVAGWCRTACAPVRCRTLEHHHHHH = not soluble

soluble on expression in E. coli measured on MAHHHHHHMSNAEEETVKKKKKYRKDKPWDNENIDHWKVEKFTQEDNKHHFLEESSFKVLFPKYREKYLQQFSSDIKNVLNKHFIKFEIDLIEGYMCVKTTKKTFDPYIIIKSRDMISLLSRSVPFVHAKRVLEDETYCDIIKISGYVRNKNKFIKRRQRLLGSNATTLKALEILTNCYICIHGKTVSVIGHFKSLKVVRRIIIDCMKNIHPVYHIKELIAKRELEKNEEFKNENWEKFLPNFKKRNVQRKKIKEKLDKKKKKNKSVFPPDQLPRKIDIQMETGEYFLNNQKNKKKDKTQDKQQKGND = not soluble

soluble on expression in E. coli measured on MAHHHHHHMRVSPNSLSEAASQLEQDRERDFFRLLYIVDRARRFLSIPVGNVDWRLTCDCLDDMNHRYADTGFLLGFTGGYVLRNRAGRTLLSRFWFSMYLGLVFYDWELRRTTRAPALEYWNSICTVDTEVGRIARVLHTPARFYEAAPMSTAFSGGPPPLPRGSSSSPSPAPHGASVRDWLWRYVSDTMSSVLLMTLCSHLFEGSSWRHRTSDNVEVTALVINSRFFHWKVFESCQVQRNETTEYNISLKWFPSFAASDSLRRSFQCRELILERSTLGGRLWYRTHFSLLRCLGLDSQ = not soluble

soluble on expression in E. coli measured on MGSSHHHHHHSSGLVPRGSHMSNQEAIGLIDSGVGGLTVLKEALKQLPNERLIYLGDTARCPYGPRPAEQVVQFTWEMADFLLKKRIKMLVIACNTATAVALEEIKAALPIPVVGVILPGARAAVKVTKNNKIGVIGTLGTIKSASYEIAIKSKAPAIEVTSLACPKFVPIVESNQYRSSVAKKIVAETLQALQLKGLDTLILGCTHYPLLRPVIQNVMGSHVTLIDSGAETVGEVSMLLDYFDIAHTPEAPTQPHEFYTTGSAKMFEEIASSWLGIENLKAQQIHLGGNEND = soluble

soluble on expression in E. coli measured on MGHHHHHHSHSLHYIHPYQPNEYLKALVAVGEICQDYDSDKMFPAFGFGARIPPEYTVSHDFAINFNEDNPECAGIQGVVEAYQSCLPKLQLYGPTNIAPIIQKVAKSASEETNTKEASQYFILLILTDGVITDMADTREAIVHASHLPMSVIIVGVGNADFSDMQMLDGDDGILRSPKGEPVLRDIVQFVPFRNFKHASPAALAKSVLAEVPNQVVDYYNGKGIKPKCSSEMY = soluble

* * *

experiment: soluble on expression in E. coli; label from the status in PepcDB or PDB records
endpointLabel: soluble on expression in E. coli

These solved cases illustrate the format of a correct answer.
* VKEIIDGFLKFQREAFPKREALFKQLATQQSPRTLFISCSDSRLVPELVTQREPGDLFVIRNAGNIVPSYGPEPGGVSASVEYAVAALRVSDIVICGHSNCGAMTAIASCQCMDHMPAVSHWLRYADSARVVNEARPHSDLPSKAAAMVRENVIAQLANLQTHPSVRLALEEGRIALHGWVYDIESGSIAAFDGATRQFVPLAANPRVCAIPLRQPTAA | soluble
* MENFIDTLENWRDQKQIISVICKDGIKIDDSIITSFKASKDVGISNGLRIQLTFQEINFKAIVGQTDVSAATGRTSTTNDGGATSKKNTGNTTTSLGSPMLTCKELFSYSASELSDEALKARVTCSKSVSVKNGESTFTA | not soluble
* MGILKSLFTLGKSFVAQAEEAIDEAQGVRMLEQHIRDAKAELDKAGKSRVDLLARVKLSHDKLNDLRERKASLETRALAAMSKNVDAALLNEVAEEIARLENAILAEEQVLTNLEASRDAVEKAVTATGQRIAQFEQQLEVVKATEAMQRAQQAVTTSTVGAASNVSTAAESLKRLQTRQAERQARLDAAAQLEKVADGRDLDEKLAQAGIGATNKSNAQGVLARLQRQQGELEHHHHHH | not soluble
* MNKNVMVKGLTALTILTILTSLGFAENISNQPHSIAKAEKNVKEITDATKEPYNSVVAFVGGTGVVVGKNTIVTNKHIAKSNDIFKNRVSAHHSSKGKGGGNYDVKDIVEYPGKEDLAIVHVHETSTEGLNFNKNVSYTKFADGAKVKDRISVIGYPKGAQTKYKMFESTGTINHISGTFMEFDAYAQPGNSGSPVLNSKHELIGILYAGSGKDESEKNFGVYFTPQLKEFIQNNIEK | not soluble

soluble on expression in E. coli measured on MGSDKIHHHHHHWFMPFDNWLYQLQNADPVEISSSGFEIAVIDYSKDGSESGEYSPEEIKIMVDAGVVPVAYVNIGQAEDYRFYWKESWYTNTPEWLGEEDPAWPGNYFVKYWYNEWKEIVFSYLDRVIDQGFKGIYLDRIDSFEYWAQEGVISRRSAARKMINFVLEIAEYVRERKPDMLIIPQNGENILDFDDGQLASTVSGWAVENLFYLKTIPLEENETKSRLEYLIRLNRKGKFILSVDYVDDGSDSFENISRILDYYEKAKRNGCIPYAARSDLELDEMNVIEGIQPPEALKDYESRTYR = not soluble
